All values here come from the EternaBench riboswitch data.

# System: MS2 coat protein
# PROCEDURE TEXT: apparent Kd, MS2 coat protein; higher = weaker binding; RNA-MaP array; FMN 200 µM where present
# EXPERIMENTAL SETUP: designed as: OFF switch for flavin mononucleotide; no ligand
We begin with a simple list: items and their reported apparent Kd.

SEQ STRING | UNIT TEXT | apparent Kd
UUUUAGUCAGGAUAUCGUUAAUUUAAUUGUUUGUAUUAGUUCGAGAAGGGACAUGAGGAUCACCCAUGUACUUU | nM | 23.7
GACUUGUAAGGAUAUCGUGCAAGUUUCAAAAGAGGCUUGUGCGAGAAGGUACAUGAGGAUCACCCAUGUAGGUU | nM | 27
UAUAUAUAGUAAGGAUAUGUAUAUAAUUUAUAAACAGAAGGUACUGACAUGAGGAUCACCCAUGUUUUAGUGUGGGCAUGUAGA | nM | 72.8
UAUAUAUAGUAAGGAUAUGUAUAUAUUUUACAAACAGAAGGUACUGACAUGAGGAUCACCCAUGUUUUAGUGUGGGCAUGUAGA | nM | 57.8

====

# Tested on: MS2 coat protein
# PROCEDURE TEXT: apparent Kd, MS2 coat protein; higher = weaker binding; RNA-MaP array; tryptophan 2.4 mM where present
# EXPERIMENTAL SETUP: ligand present: tryptophan; designed as: ON switch for tryptophan
Measured apparent Kd, listed per entry.

SEQ STRING | apparent Kd, µM
AGGUACAGCAGGUGAUUCUGGCUGUACCAACGAGGACCGGUACGGCCGCCACUCGAAUAAACAUGAGGAUCACCCAUGUACAAAU | 0.0216
AGCCACUCGAGUGAUCCUCACGAGUGGCUACGAGGACCGGUACGGCCGCCACUCGAAUUAACAUGAGGAUCACCCAUGUAAUCUA | 0.0537
AAAAUAAAAUAAAAGGUGGAAAUAAGGCGGCGAGGACCGGUACGGCCGCCACUCGCGUACAUGAGGAUCACCCAUGUCUGAAAAU | 0.0274
ACGUUUUAGUCGGCCGCCACUGUUUUCAUGUUCAACAUGAGGAUCACCCAUGUACCUUUUUUUAUCAGGACCGGGACGUAAUAGA | 0.0274
AGGUACGGAAUCCUCAUGUAGUCGUACCAACGAGGACCGGUACGGCCGCCACUCGAAUAAACAUGAGGAUCACCCAUGUAAUAAU | 0.0197
AACAUGAGGAUCACCCAUGUACCUUUCGAUCGAGGACCGGUACGGCCGCCACUCGAAAACAUGAGGAUCACCCAUGUUCAACAGG | 0.0874
AGCACGGUGAUGGUAGCCGGACGAUAAGUACGAGGACCGGUACGGCCGCCACUCGAAGUCCUACGACAUGAGGAUCACCCAUGUA | 0.0379
AACAUGAGGAUCACCCAUGUCCCAUGUGAACGAGGACCGGUACGGCCGCCACUCGAAUGAGGCGGCACAUGAGGAUCACCCACAU | 0.196

====

# System: MS2 coat protein
# PROCEDURE TEXT: apparent Kd, MS2 coat protein; higher = weaker binding; RNA-MaP array; FMN 200 µM where present
# EXPERIMENTAL SETUP: designed as: ON switch for flavin mononucleotide; no ligand
Please mark Y if the recorded apparent Kd is equal to or greater than 0.02 µM, and N if it falls below.

SEQ STRING | CLASS NAME
GCGAUUAAGUAGAAGGUACGUUAUAAGUCAAUGUAAGGAUAUACUGACAUGAGGAUCACCCAUGUUUAAUUUGUUUACUGUCGC | N
AAACACGGACAUGAGGAUCACCCAUGUGGCGAAAGCCUUGGGAGAAGGCCGUAUGCAAAGCAUACGGAGGAUAUUCAUACCGUG | Y
GGUACACAUGAGGAUCACCCAUGUCGUAUGACAUGAGGAUAUGUACAGACUUCGGUCUGUACAGAAGGCAUGUGUC | Y
UGGUACAUCGGAGGAUAUCGUGUGUAAACAUGAGGAUCACCCAUGUCGUACGAGAGUACGGAGAUCGAGAAGGCCGAUGUACCU | N
UGAUCUUACAUGAGGAUCACCCAUGUAGACCAGUAACUAACCAGAAGGCACGUAGAGUAAAACAGUGAGGAUAUGGAUGACAUA | N
CGCUACGUUUCGUAGCAGUGUCAUCGAGAAGGCCCUGACAUGAGGAUCACCCAUGUUCCAAAAUGGGAGGAUAUCGAUGAUACA | N
ACACGAAAGUCAGGAUAUGUAUCAGCACGAUAGUUACAUGAGGAUCACCCAUGUUUCACGGGCCAACAGAAGGGACAGGGUGGC | N

====

# Test system: MS2 coat protein
# PROCEDURE TEXT: apparent Kd, MS2 coat protein; higher = weaker binding; RNA-MaP array; FMN 200 µM where present
# EXPERIMENTAL SETUP: ligand present: flavin mononucleotide; designed as: ON switch for flavin mononucleotide
apparent Kd values by entry
ENDPOINT NAME: apparent Kd

SEQ STRING | OBSERVED MEASUREMENT
CCGAUUAGCACAGGAUAUGGGAACUCGUAAUUCCCAGAAGGGUGAGCCAAUACAUGAGGAUCACCCAUGUGCGGUAGGUCGGGA | 51 nM
ACAUACUUUCGAGGAUAUCGGUGAUAAAUUUUACGAGAAGGCGAUAAAAGAUAUAAUCUUAUAAACAUGAGGAUCACCCAUGUA | 23.9 nM
UUGGACGUCGUAGGAUAUGUAGGAUAUUCCUACAUGAGGAUCACCCAUGUUGACAUGGAAGAAGGACAGAAAGACGAUGUCCAU | 6.63 nM
UUGGACGUCGUAGGAUAUGUAGGAUAUUCCUACAUGAGGAUCACCCAUGUAGACAUGGAAGAAGGACAGAAGGACGAUGUCCAU | 4.79 nM

====

Recorded apparent Kd values for a group of sequences are listed next.
# System: MS2 coat protein
# PROCEDURE TEXT: apparent Kd, MS2 coat protein; higher = weaker binding; RNA-MaP array; FMN 200 µM where present
# EXPERIMENTAL SETUP: designed as: OFF switch for flavin mononucleotide; no ligand

SEQ STRING | apparent Kd [nM]
GCUGGGUCAGGAUAUACGAGAUCGAAAGAUCGAAGAUCCGUACAUGAGGAUCACCCAUGUAGAAGGGACUGGGC | 21.4
GAGUAGAUCCGAGGAUAUACAAUCCGGAAACGGUACAUGAGGAUCACCCAUGUAGAAGGCGGAUCUACAGGUACUAAAGUACCG | 5.99
AAACAUGUCCGAGGAUAUCUGAGAUCAUUUUCAAGAGAAGGCGGACAUGAGGAUCACCCAUGUCUCUCCUCAUCAACUCCAAAG | 7.22
AUGCCGUGCAGAGCGCGACGGCGUACAUGAGGAUCACCCAUGUAGGAUAUACUACACAAAGUGUAGUAGAAGGACGUGCGACUG | 30.6

====

# Test system: MS2 coat protein
# PROCEDURE TEXT: apparent Kd, MS2 coat protein; higher = weaker binding; RNA-MaP array
# EXPERIMENTAL SETUP: ligand present: flavin mononucleotide; designed as: ON switch for flavin mononucleotide

SEQ STRING | ASSAYED TARGET | apparent Kd
UCUGUGAUCAACAUGAGGAUCACCCAUGUUACCACCUCUAGGCAGGAUAUGAGCGUACUAAGAAGUCAGAAGGGCCUUUUUACG | MS2 coat protein | 10.1 nM
CCUUCAGAUGAGAAGGCCAUCUACGGCUGGACACGGCAGUAACAUGAGGAUCACCCAUGUUUAAUGGAGGAUAUCAACGGAAGC | MS2 coat protein | 8.94 nM
CCUAACCACAAGAAGGAUGAGAUGCGGCAUUUCAUAGGAUAUUGAUCACAUGAGGAUCACCCAUGUUGCCGUAAGGCGCUAGUC | MS2 coat protein | 136 nM
AGACAUGAGGAUCACCCAUGUUGCUGUACAGGAGUUAAAGUCUAGGAUAUUGGGUCAGAAAGCGACAAGAAGGAGACACGCCAG | MS2 coat protein | 8.47 nM
AGACUUAGACAAGGAUAUGGUGAGGCCACCUUACAUGAGGAUCACCCAUGUCUAGAGAUCCUGUGCCAGAAGGUGUAGUUGGAC | MS2 coat protein | 75.7 nM
AUUCAUUGAAACAUGAGGAUCACCCAUGUACACUGGCACUUACAGGAUAUUGAAUAUGGAAGUCGCAAGAAGGGUAACGUGAUC | MS2 coat protein | 57 nM
UGACUAAAGGAGAAGGGCCACUCCAUUACUUCGGCAGGAUAUCCAUAAACAUGAGGAUCACCCAUGUACAUACAUUGGACGGCG | MS2 coat protein | 7.73 nM
AUUUCAUGUGUAGGAUAUCGCAUUCAGAACUAGCCAUCCACAUGAGGAUCACCCAUGUGUGCGGGCGAGAAGGACACGAGGGCA | MS2 coat protein | 7.55 nM
AGGUCCGGAGAGAAGGCCGACUUUGUAAUACACGGAGGAUAUCUACCACAUGAGGAUCACCCAUGUCCACACCGCAAGUUGUAA | MS2 coat protein | 10.8 nM
CUGGUUGCCGGUUGCGACACAUGAGGAUCACCCAUGUAUACCGAGGAUAUGUGGAGCUGUAGAUGACAGAAGGCGGUGAGUAUC | MS2 coat protein | 38.1 nM
CAGACCCGGCGGGAGGAUAUACGAGAGAACACAUGAGGAUCACCCAUGUUGCACUAAACAGCGUGGUAGAAGGCCCAUCAUCUGUA | MS2 coat protein | 11.9 nM
ACAUGAGGAUCACCCAUGUCGAAGCACGCGCCACCUUCAAGCAGAAGGAAGUGACAAGUACUAGCUUAGGAUAUGCUCAAAGGU | MS2 coat protein | 7 nM
UAGAGCUCGCAAGGAUAUAACGCACAGAAACAUGAGGAUCACCCAUGUGGAAAGGAUCAACGUCGUUAGAAGGUGCAGAAAUAU | MS2 coat protein | 22 nM
GUCAUCUGUUUAGGAUAUGCGGUAGACACCGGGCGAGAAACAUGAGGAUCACCCAUGUUCGGAUUGCAGAAGGAAACGGCAAUA | MS2 coat protein | 17 nM
